Target: Deoxynucleoside kinase (Drosophila melanogaster) (UniProt Q9XZT6)
Sequence (whole entry): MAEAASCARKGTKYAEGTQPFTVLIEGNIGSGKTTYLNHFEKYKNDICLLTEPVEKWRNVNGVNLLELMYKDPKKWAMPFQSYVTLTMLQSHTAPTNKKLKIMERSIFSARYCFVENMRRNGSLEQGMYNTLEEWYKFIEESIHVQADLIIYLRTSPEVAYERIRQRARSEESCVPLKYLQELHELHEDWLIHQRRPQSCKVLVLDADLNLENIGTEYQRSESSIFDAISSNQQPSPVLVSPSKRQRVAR
Assay: Activity at Drosophila melanogaster dNK at 100 uM by spectrophotometry
measurement_type: Activity (%)

Worked cases, Activity given:
smiles_str=Cc1cc2cn([C@H]3CC[C@@H](CO)O3)c(=O)nc2o1 endpoint_value=30
smiles_str=Cc1cc2cn([C@H]3C[C@H](N=[N+]=[N-])[C@@H](CO)O3)c(=O)nc2o1 endpoint_value=12

(1) Cc1cc2cn([C@H]3C[C@H](O)[C@@H](CO)O3)c(=O)nc2[nH]1
(2) Cc1cc2cn([C@H]3C=C[C@@H](CO)O3)c(=O)nc2o1
(3) Cc1cc2cn([C@H]3C[C@H](F)[C@@H](CO)O3)c(=O)nc2o1
(4) Cc1cc2cn([C@H]3CC[C@@H](CO)O3)c(=O)nc2[nH]1
Please list the entries, largest Activity first. Thanks in advance for listing the labels in the requested order.
2, 1, 3, 4
(2: 330%, 1: 128%, 3: 12%, 4: 2.6%)
